I'd be grateful if you could share measured inhibition at 0.01 µM for these entries.
System: FGFR3-BAIAP2L1-expressing NIH3T3 cells
assay details: Anchorage-independent cell growth inhibition, spheroid plate
Assay type: cell-based
settings: Mus musculus, NIH3T3, 96 h; 10 nM, 4 days; read-out: growth inhibition rate FGFR3-BAIAP2L1-expressing NIH3T3 Cells
I only need the number, in %, no unit after it.

Need inhibition at 0.01 µM of COc1cc(OC)c(F)c(COc2cnc(Nc3ccc(N4CCC(NCCO)CC4)cc3)nc2)c1F [Example 299] , thanks.
81

Please look up its inhibition at 0.01 µM: COc1cc(OC)c(F)c(COc2cnc(Nc3ccc(N4CCN(C)CC4)cc3)nc2)c1F [Example 122]
83

So what does the record say about inhibition at 0.01 µM for COc1cc(OC)c(F)c(COc2cnc(Nc3cnn(C[C@@H](O)CO)c3)nc2)c1F [Example 116] ?
74

// returns reported inhibition at 0.01 µM for input COc1cc(OC)c(F)c(COc2cnc(Nc3cc(CN4CCN(C)CC4)n(C)n3)nc2)c1F [Example 248]
19

* * *

Exercise: state measured rate of inhibiting kinase activity v1 for each of the compounds provided.
Tested on: FGFR3-TACC3_v1 (N-FLAG) fusion polypeptide
assay details: In vitro kinase activity inhibition (HTRF KinEASE-TK)
Assay type: biochemical, human
settings: 100 nM, 100 μM ATP
Numbers only here, please. The scale is %.

Fill blank: measured rate of inhibiting kinase activity v1 of the compound COc1cc(OC)c(F)c(COc2cnc(Nc3ccc(N4CCC(NCCO)CC4)cc3)nc2)c1F [Example 299] is ____.
94

Name the recorded rate of inhibiting kinase activity v1 for COc1cc(OC)c(F)c(COc2cnc(Nc3cnn(C[C@@H](O)CO)c3)nc2)c1F [Example 116] .
95

Requested read-out: rate of inhibiting kinase activity v1. Entry: COc1cc(OC)c(F)c(COc2cnc(Nc3ccc(N4CCN(C)CC4)cc3)nc2)c1F [Example 122]
94

Recorded rate of inhibiting kinase activity v1 for COc1cc(OC)c(F)c(COc2cnc(Nc3cc(CN4CCN(C)CC4)n(C)n3)nc2)c1F [Example 248] , please?
86

* * *

measured target: human recombinant FGFR1 (Homo sapiens)
Sequence (P11362 22-822): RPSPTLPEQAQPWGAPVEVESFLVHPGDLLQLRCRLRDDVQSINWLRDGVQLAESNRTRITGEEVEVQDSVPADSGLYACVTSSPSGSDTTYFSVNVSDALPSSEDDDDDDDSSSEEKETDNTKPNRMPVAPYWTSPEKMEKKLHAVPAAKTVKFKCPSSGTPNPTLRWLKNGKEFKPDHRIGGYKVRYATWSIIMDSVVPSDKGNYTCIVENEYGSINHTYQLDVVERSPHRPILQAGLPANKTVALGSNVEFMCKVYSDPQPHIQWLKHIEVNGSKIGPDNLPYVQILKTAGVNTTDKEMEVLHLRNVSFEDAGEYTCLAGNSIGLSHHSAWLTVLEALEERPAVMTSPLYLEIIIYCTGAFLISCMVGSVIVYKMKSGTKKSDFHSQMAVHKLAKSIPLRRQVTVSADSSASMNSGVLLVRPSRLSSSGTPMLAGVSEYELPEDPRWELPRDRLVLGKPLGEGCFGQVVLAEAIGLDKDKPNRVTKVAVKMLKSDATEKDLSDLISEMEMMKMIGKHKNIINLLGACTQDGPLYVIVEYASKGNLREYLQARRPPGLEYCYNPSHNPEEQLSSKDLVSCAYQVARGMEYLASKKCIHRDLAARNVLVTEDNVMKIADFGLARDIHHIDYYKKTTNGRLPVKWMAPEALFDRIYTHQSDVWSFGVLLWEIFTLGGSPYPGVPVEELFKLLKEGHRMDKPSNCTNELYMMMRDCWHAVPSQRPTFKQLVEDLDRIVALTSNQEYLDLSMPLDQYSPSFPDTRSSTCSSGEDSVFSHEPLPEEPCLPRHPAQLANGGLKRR
assay details: FGFR1 enzyme assay (LabChip EZ Reader)
recorded metric: IC50 (nM)
Write it as a number; the unit nM goes unstated.

What does the record list as IC50 for COc1cc(Nc2ncc(CCc3c(F)c(OC)cc(OC)c3F)cn2)ccc1N1CCN(C)CC1 ?
2

What value of IC50 has been reported for the following compound? COc1cc(OC)c(F)c(COc2cnc(Nc3cnn(CC(=O)N4CC(O)C4)c3)nc2)c1F
2

// IC50 lookup, key: COc1cc(OC)c(F)c(COc2cnc(Nc3cnn(C[C@H](O)CO)c3)nc2)c1F
1

Reported IC50 for COc1cc(OC)c(F)c(COc2cnc(Nc3cc(CN4CCN(C)CC4)n(C)n3)nc2)c1F : what is it?
4

# input compound: COc1cc(OC)c(F)c(COc2cnc(Nc3cnn(C[C@@H](O)CO)c3)nc2)c1F ; wanted: its IC50
1

Query (compound): COc1cc(Nc2ncc(OCc3c(F)c(OC)cc(OC)c3F)cn2)ccc1N1CCC(N2CCN(C)CC2)CC1 ; field requested: IC50
2

Which IC50 is reported for this compound? COc1cc(OC)c(F)c(COc2cnc(Nc3cnn(CCN4CCN(C)CC4)c3)nc2)c1F
2

Consider the compound shown here: COc1cc(Nc2ncc(OCc3c(F)c(OC)cc(OC)c3F)cn2)ccc1N1CCN(C2CCN(C)CC2)CC1 What is its recorded IC50?
2

# query: IC50 of entry COc1cc(OC)c(F)c(CCc2cnc(Nc3ccc(N4CCC(N5CCN(C)CC5)CC4)c(F)c3)nc2)c1F
2

// lookup IC50 for COc1cc(OC)c(Cl)c(COc2cnc(Nc3cnn(C4CCN(C)CC4)c3)nc2)c1Cl
2

Which value of IC50 has been reported for COc1cc(Nc2ncc(OCc3c(F)c(OC)cc(OC)c3F)cn2)ccc1N1CCN(C)CC1 in the records?
1
